# Tested on: primary human hepatic stellate cells (donor 1)
# TEST_NAME: scaled lipid accumulation score (0 = DMSO-like, 1 = nortriptyline-like); higher = stronger HSC inactivation (lipid re-accumulation), active = hit call of the paper
# CONDITION_DETAILS: library stock concentration: 2 mM; 48 h
About 620 (11%) of roughly 5,800 compounds showed activity.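 How the source made its calls: active = score above a cut-off or among the top three wells of a plate; in these data no inactive exceeds 0.85.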 The sample as a whole holds a higher share of actives than the screen did.
Please answer using one outcome listed in true (1) = active, false (0) = inactive

Example entries begin here.
Cc1cc(Nc2cc(N3CCN(C)CC3)nc(Sc3ccc(NC(=O)C4CC4)cc3)n2)n[nH]1 = false (0)
O=S(=O)(c1cccc2c(I)cccc12)N1CCCNCC1 = false (0)
CCN1CCN(Cc2ccc(Nc3ncc(F)c(-c4cc(F)c5nc(C)n(C(C)C)c5c4)n3)nc2)CC1 = true (1)

Then there is this compound:
Lab log entry: `CNC(=O)Nc1ccc(-c2nc(N3CC4CCC(C3)O4)c3cnn(C4CCC5(CC4)OCCO5)c3n2)cc1` — outcome as called in the assay?
false (0)

###

# Test system: primary human hepatic stellate cells (donor 1)
# TEST_NAME: scaled lipid accumulation score (0 = DMSO-like, 1 = nortriptyline-like); higher = stronger HSC inactivation (lipid re-accumulation), active = hit call of the paper
# CONDITION_DETAILS: library stock concentration: 3.33 mM; 48 h
Where a name gives a salt, the structure may show the parent alone. The campaign covered roughly 5,800 compounds. About 620 (11%) showed activity.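 The calls were made as follows: active = score above a cut-off or among the top three wells of a plate; in these data no inactive exceeds 0.85.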 Many of the other results were omitted from the sample, so actives are more common in it than they were.
Please answer using one outcome listed in yes = active, no = inactive

Example entries begin here.
CC1COCCN1c1cc(C2(S(C)(=O)=O)CC2)nc(-c2cccc3[nH]ccc23)n1 (configuration not stated) = no
CN1CC2c3ccccc3Oc3ccc(Cl)cc3C2C1 (configuration not stated) = no
C[C@H](O)[C@H](O)[C@@H](O)[C@@H](O)C=O [L-(+)-Rhamnose Monohydrate] = no

Lab log entry: C[C@H]1[C@H](OC(=O)CCC(=O)O)O[C@@H]2O[C@@]3(C)CC[C@H]4[C@H](C)CC[C@@H]1[C@@]24OO3 [Artesunate] — outcome as called in the assay?
no

Lab log entry: `N#CCCc1ccc2c(c1)-c1[nH]c3ccc([N+](=O)[O-])cc3c1CC(=O)N2` — outcome as called in the assay?
no

Lab log entry: CN1CCC(=C2c3ccccc3C=Cc3ccccc32)CC1 [Cyproheptadine HCl] — outcome as called in the assay?
no

Lab log entry: `CC(C)c1cc(C(C)C)c(CC(=O)NS(=O)(=O)Oc2c(C(C)C)cccc2C(C)C)c(C(C)C)c1` — outcome as called in the assay?
no

Lab log entry: `O=C(NCc1cccc(O)c1)Nc1nc(-c2ccncc2)cs1` — outcome as called in the assay?
no

###

Listing of recorded scaled lipid accumulation score by entry.
# Test system: primary human hepatic stellate cells (donor 1)
# TEST_NAME: scaled lipid accumulation score (0 = DMSO-like, 1 = nortriptyline-like); higher = stronger HSC inactivation (lipid re-accumulation), active = hit call of the paper
# CONDITION_DETAILS: library stock concentration: 1 mM; 48 h
The campaign covered roughly 5,800 compounds. About 620 (11%) showed activity. The sample holds actives, similar compounds and a random draw of the others, so the mix is not that of the screen.

Solved cases below.
CCCCC[C@@H](O)/C=C/[C@H]1[C@H](O)CC(=O)[C@@H]1C/C=C\CCCC(=O)O [15(R)-Prostaglandin E2] = ≤ 0 (inactive)
CCCCCC(O)C=CC1C(O)CC(O)C1CCCCCCC(=O)O (stereo not drawn) [Prostaglandin F1a] = ≤ -0.021 (inactive)
O=C(Nc1ccccc1)c1cc([N+](=O)[O-])ccc1Cl = ≤ 0 (inactive)

Please turn your attention to the following entry.
What scaled lipid accumulation score value was documented for this compound, C#CC1(O)CC[C@H]2[C@@H]3CCC4=CC(=O)CC[C@@H]4[C@H]3CC[C@@]21CC (stereo partly drawn) [Norgestrel] ?
0.037 (inactive)
